target: MASP-2 CCP2-SP (Homo sapiens (Human), UniProt O00187); experiment: MASP-2 co-crystallization, X-ray crystallography and structure analysis (H-bonds, van der Waals contacts); details: Table A8-6; nearest protein atom in cell to the left
Sequence (O00187 445-686): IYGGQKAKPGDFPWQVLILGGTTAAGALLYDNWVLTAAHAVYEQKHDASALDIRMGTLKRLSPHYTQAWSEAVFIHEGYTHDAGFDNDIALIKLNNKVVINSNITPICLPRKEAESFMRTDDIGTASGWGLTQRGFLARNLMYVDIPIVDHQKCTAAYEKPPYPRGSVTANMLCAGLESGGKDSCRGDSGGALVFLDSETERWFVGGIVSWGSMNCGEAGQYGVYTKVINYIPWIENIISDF
Sequence (O00187 364-432 partner): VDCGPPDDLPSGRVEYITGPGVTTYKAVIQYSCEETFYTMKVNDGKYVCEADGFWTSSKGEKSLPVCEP
measurement-type: Pharmacophore protein distance to SER_611
Give only the figure.

Query: Give its Pharmacophore protein distance to SER_611 value. Item: C[C@H](NC(=O)[C@H](N)C1Cc2ccccc2C1)C(=O)NCc1ccc2c(N)nccc2c1.Cl.Cl [1088_A]
Response: 2.71

Query: // same read-out, input: "CNC(=O)c1ccc2c(=O)n(Cc3ccccc3)c(=O)n(CC(=O)NCc3ccc(C(=N)N)cc3)c2c1"
Response: 2.86

Query: // same read-out, input: C[C@H](NC(=O)[C@H]1C[C@@H](c2ccccc2)CN1)C(=O)NCc1ccc2c(N)nccc2c1.Cl.Cl [1089_B]
Response: 2.79

Query: // same read-out, input: "C[C@H](NC(=O)[C@H]1C[C@H](c2ccccc2)CN1)C(=O)NCc1ccc2c(N)nccc2c1"
Response: 2.87

Query: // same read-out, input: "N=C(N)c1ccc(CNC(=O)[C@@H]2CCN2C(=O)[C@H](NCC(=O)O)C2Cc3ccccc3C2)cc1"
Response: 2.58

Query: // same read-out, input: C[C@H](NC(=O)[C@H]1Cc2c([nH]c3ccccc23)CN1)C(=O)NCc1ccc(C(=N)N)cc1.Cl.Cl [1097_1]
Response: 3.04

Query: // same read-out, input: C[C@H](NC(=O)[C@H](N)CCc1ccccc1)C(=O)NCc1ccc(N)nc1.Cl.Cl [1007_2]
Response: 2.21

Query: // same read-out, input: C[C@H](NC(=O)[C@H]1C[C@@H](c2ccccc2)CCN1)C(=O)NCc1ccc(C(=N)N)cc1 (stereo in doubt)
Response: 2.57

Query: // same read-out, input: "C[C@H](NC(=O)[C@@H](CCc1ccccc1)NCc1ccc(C(=O)N2CCOCC2)cc1)C(=O)NCc1ccc(C(=N)N)cc1.Cl.Cl"
Response: 2.46

----------
target: MASP-2 CCP2-SP (Homo sapiens (Human)); assay: MASP-2 co-crystallization, X-ray crystallography and structure analysis (H-bonds, van der Waals contacts); settings: Table A6-2 pharmacophore angle
Where a name gives a salt, the structure may show the parent alone.
measurement-type: a(O1, O2, N2)
Give only the figure.

Query: Checklist item: a(O1, O2, N2) tested on MASP-2 CCP2-SP (Homo sapiens (Human)), entry C[C@H](NC(=O)[C@H]1C[C@@H](c2ccccc2)CCN1)C(=O)NCc1ccc(C(=N)N)cc1 (stereo in doubt) , value?
Response: 144.81

Query: // same read-out, input: "Cc1nc(N)ccc1CNC(=O)[C@H](C)NC(=O)[C@H]1C[C@@H](c2ccccc2)CCN1C"
Response: 144.23

Query: // same read-out, input: "Cc1nc(N)ccc1CNC(=O)[C@H](C)NC(=O)[C@H]1C[C@H](Cc2ccccc2)CN1"
Response: 139.74

Query: // same read-out, input: C[C@H](NC(=O)[C@H]1C[C@@H](c2ccccc2)CCN1)C(=O)NCc1cc(Cl)ccc1O.Cl [1078_14]
Response: 148.03

Query: // same read-out, input: CC(=O)Nc1ccc(CCNC(CCc2ccccc2)C(=O)NC(C)C(=O)NCc2ccc(C(=N)N)cc2)cc1.Cl.Cl (stereo not shown) [1345_1]
Response: 134.33

Query: // same read-out, input: C[C@H](NC(=O)[C@H]1C[C@@H](c2ccccc2)CCN1)C(=O)NCc1cc(Cl)ccc1O.Cl [1078_4]
Response: 146.07

Query: // same read-out, input: N=C(N)c1ccc(CNC(=O)C(CF)NC(=O)[C@H](N)CCc2ccccc2)cc1 (stereo partly shown) [compound 1050, Dihydrochloride]
Response: 140.97

----------
target: MASP-2 CCP2-SP (Homo sapiens (Human), UniProt O00187); assay: MASP-2 co-crystallization, X-ray crystallography and structure analysis (H-bonds, van der Waals contacts); settings: Table A8-6; nearest protein atom in cell to the left
Please assign 0 (no) whenever Pharmacophore protein distance to PHE_529 is at or above 3, and 1 (yes) whenever it is below.

Query: Determine whether this compound shows Pharmacophore protein distance to PHE_529 lower than 3 (ties excluded): C[C@H](NC(=O)[C@H]1C[C@@H](c2ccccc2)CCN1)C(=O)NCc1cc(Cl)ccc1O.Cl [1078_1]
Response: 0 (no)

Query: // same read-out, input: CC(NC(=O)C(CCc1ccccc1)NCc1ccc(C(=O)N2CCOCC2)cc1)C(=O)NCc1ccc(C(=N)N)cc1.Cl.Cl (centres unmarked)
Response: 0 (no)

Query: // same read-out, input: C[C@H](NC(=O)[C@H](N)C1Cc2ccccc2C1)C(=O)NCc1ccc2c(N)nccc2c1.Cl.Cl [1088_A]
Response: 1 (yes)

Query: // same read-out, input: C[C@H](NC(=O)[C@H](N)CCc1ccccc1)C(=O)NCc1ccc(N)nc1.Cl.Cl [1007_2]
Response: 0 (no)

Query: // same read-out, input: "C[C@H](NC(=O)[C@@H](CCc1ccccc1)NCc1ccc(C(=O)N2CCOCC2)cc1)C(=O)NCc1ccc(C(=N)N)cc1.Cl.Cl"
Response: 0 (no)

Query: // same read-out, input: "C[C@H](NC(=O)[C@H]1C[C@H](c2ccccc2)CN1)C(=O)NCc1ccc2c(N)nccc2c1"
Response: 1 (yes)

Query: // same read-out, input: C[C@H](NC(=O)[C@H](N)CCCc1ccccc1)C(=O)NCc1ccc(C(=N)N)cc1.Cl.Cl [1042_3]
Response: 1 (yes)

----------
target: MASP-2 CCP2-SP (Homo sapiens (Human), UniProt O00187); assay: MASP-2 co-crystallization, X-ray crystallography and structure analysis (H-bonds, van der Waals contacts); details: Table A6-2 pharmacophore angle
Structures can show the parent of a compound that is named as a salt.
measurement-type: a(O1, O2, N2)
Give only the figure.

Query: Give its a(O1, O2, N2) value. Item: Cc1nc(N)ccc1CNC(=O)[C@H](C)NC(=O)[C@H]1C[C@H](Cc2ccccc2-c2ccccc2)CN1 [compound 1373, Di-trifluoroacetate salt]
Response: 141.07

Query: // same read-out, input: "C[C@H](NC(=O)[C@H](N)CCc1ccccc1)C(=O)NCc1ccc(C(=N)N)cc1"
Response: 136.56

Query: // same read-out, input: "C[C@H](NC(=O)[C@H](N)C1Cc2ccccc2C1)C(=O)NCc1ccc2nc(N)[nH]c2c1"
Response: 132.46

Query: // same read-out, input: "C[C@H](NC(=O)[C@H](N)CCc1cc(Cl)cc(Cl)c1)C(=O)NCc1ccc(C(=N)N)cc1"
Response: 137.47

Query: // same read-out, input: C[C@H](NC(=O)[C@H]1C[C@@H](c2ccccc2)CCN1)C(=O)NCc1cc(Cl)ccc1O.Cl [1078_9]
Response: 146.14

Query: // same read-out, input: C[C@H](NC(=O)[C@H]1C[C@@H](c2ccccc2)CN1)C(=O)NCc1ccc2c(N)nccc2c1.Cl.Cl [1089_B]
Response: 141.07

Query: // same read-out, input: Cc1nc(N)ccc1CNC(=O)[C@H](C)NC(=O)[C@H]1C[C@H](Cc2cccc(Cl)c2)CN1.Cl.Cl [1328_3]
Response: 139.67

Query: // same read-out, input: C[C@H](NC(=O)[C@H]1C[C@@H](c2ccccc2)CCN1)C(=O)NCc1cc(Cl)ccc1O.Cl [1078_15]
Response: 147.42

Query: // same read-out, input: C[C@H](NC(=O)[C@H]1C[C@@H](c2ccccc2)CCN1)C(=O)NCc1cc(Cl)ccc1O.Cl [1078_3]
Response: 145.54

Query: // same read-out, input: Cc1nc(N)ccc1CNC(=O)[C@H](C)NC(=O)[C@H]1C[C@H](Cc2cc(-c3ccccc3)cs2)CN1 [compound 1399, Dihydrochloride]
Response: 143.45

Query: // same read-out, input: C[C@H](NC(=O)[C@H](N)CCCc1ccccc1)C(=O)NCc1ccc(C(=N)N)cc1.Cl.Cl [1042_1]
Response: 170.80

Query: // same read-out, input: "C[C@H](NC(=O)[C@H](N)CCc1cccc(Cl)c1)C(=O)NCc1ccc(C(=N)N)cc1"
Response: 139.53

Query: // same read-out, input: C[C@H](NC(=O)[C@H]1C[C@@H](c2ccccc2)CCN1)C(=O)NCc1cc(Cl)ccc1O.Cl [1078_11]
Response: 142.32

Query: // same read-out, input: C[C@H](NC(=O)[C@H](N)C1Cc2ccccc2C1)C(=O)NCc1ccc2c(N)nccc2c1.Cl.Cl [1088_A]
Response: 141.09

Query: // same read-out, input: C[C@H](NC(=O)[C@H]1C[C@@H](c2ccccc2)CCN1)C(=O)NCc1cc(Cl)ccc1O.Cl [1078_13]
Response: 146.15
